# Subject of test: human DGKζ (Homo sapiens)
# Construct: TVMV protease cleavage site (C); Hexa-His (C); made in house; host or cells: Sf9 insect cells (baculovirus, Bac-to-Bac)
# Sequence (Q13574 with tags, fused parts or gaps isoform Q13574-4): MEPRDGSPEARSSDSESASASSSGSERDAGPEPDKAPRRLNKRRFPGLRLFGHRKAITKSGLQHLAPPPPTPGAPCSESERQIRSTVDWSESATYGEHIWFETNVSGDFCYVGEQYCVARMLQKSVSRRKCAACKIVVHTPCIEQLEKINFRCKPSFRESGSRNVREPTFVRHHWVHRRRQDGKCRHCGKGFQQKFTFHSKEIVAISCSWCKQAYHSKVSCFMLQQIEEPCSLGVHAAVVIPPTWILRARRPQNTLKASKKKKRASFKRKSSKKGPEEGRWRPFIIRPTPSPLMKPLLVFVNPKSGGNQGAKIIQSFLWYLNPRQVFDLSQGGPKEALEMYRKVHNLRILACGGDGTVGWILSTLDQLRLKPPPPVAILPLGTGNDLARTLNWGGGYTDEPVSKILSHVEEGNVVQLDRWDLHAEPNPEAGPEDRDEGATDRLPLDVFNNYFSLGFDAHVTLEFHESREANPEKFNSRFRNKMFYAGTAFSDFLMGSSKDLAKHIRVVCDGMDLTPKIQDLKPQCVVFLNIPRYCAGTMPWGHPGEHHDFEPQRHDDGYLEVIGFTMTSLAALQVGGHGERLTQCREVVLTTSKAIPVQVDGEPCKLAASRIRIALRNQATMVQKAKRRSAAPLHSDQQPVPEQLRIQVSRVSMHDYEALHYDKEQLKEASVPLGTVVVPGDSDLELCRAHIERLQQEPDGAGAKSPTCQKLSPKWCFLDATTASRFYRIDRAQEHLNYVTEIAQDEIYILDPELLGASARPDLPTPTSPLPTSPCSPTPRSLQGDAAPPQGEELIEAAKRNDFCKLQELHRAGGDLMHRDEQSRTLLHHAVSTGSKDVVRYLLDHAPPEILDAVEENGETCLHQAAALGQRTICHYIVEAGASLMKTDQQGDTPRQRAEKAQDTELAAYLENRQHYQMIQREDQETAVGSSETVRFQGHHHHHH
# Protocol summary: DGKζ LIPGLO assay (extruded liposome substrate), in vitro DGK inhibition
# Assay type: biochemical
# Condition: liposome (LIPGLO) assay; read-out: DGKz LIPGLO IC50
Entries are sorted into classes by IC50 as follows: b0 = under 0.8 µM, b1 = from 0.8 µM up to 2 µM, b2 = 2 µM and over

Band assignment needed for COc1ccc2c(n1)c(N1C[C@@H](C)N(C(c3ccccc3)c3ccc(F)cc3)C[C@@H]1C)cc(=O)n2C (single isomer, unassigned) [Example 239] please. b2

Band for the recorded IC50 of COc1cc(F)ccc1C(c1ccc(F)cc1)N1C[C@H](C)N(c2cc(=O)n(C)c3ccc(C#N)nc23)C[C@H]1C (single isomer, unassigned) [Example 109] ? b0

Would you mind sorting C[C@@H]1CN(c2cc(=O)n(C)c3ccc(C#N)nc23)[C@@H](C)CN1Cc1ccccc1F [Example 287] into the appropriate category? b1

Assign a bin to CCOc1cc(F)c(CN2C[C@H](C)N(c3cc(=O)n(C)c4ccc(C#N)nc34)C[C@H]2C)c(F)c1 [Example 1275] b0

Category lookup for the molecule CC[C@H]1CN(C(C)c2cc(F)c(F)c(F)c2)[C@H](C)CN1c1cc(=O)n(C)c2ccc(C#N)nc12 (single isomer, unassigned) [Example 1383] b0

Which class holds COC[C@@H]1CN(c2cc(=O)n(C)c3ccc(C#N)nc23)[C@@H](C)CN1C(C)c1ccc(F)cc1 (single isomer, unassigned) [Example 1160] ? b1

Given Cn1c(=O)cc(N2CCN(C(c3ccc(F)cc3)c3ccc(F)cc3)CC2C(=O)O)c2nc(C#N)ccc21 (stereo not shown) [Example 138] , name the class its IC50 places it in. b2

State the band of Cc1ccnc(C(c2ccc(Cl)cc2)N2C[C@H](C)N(c3cc(=O)n(C)c4ccc(C#N)nc34)C[C@H]2C)c1 (single isomer, unassigned) [Example 364] b2

Band of C[C@@H]1CN(c2cc(=O)n(C)c3ccc(C#N)nc23)[C@@H](C)CN1Cc1ccc(OC(F)(F)F)cc1 [Example 609] ? b2

Which bin should I file C[C@@H]1CN(c2cc(=O)n(C)c3ccc(C#N)nc23)[C@@H](C)CN1C(c1ccccc1)c1ccccc1Cl (stereo partly shown) [Example 259] under? b1

Dear colleague, I would appreciate it if you could identify the bin for C[C@@H]1CN(c2cc(=O)n(C)c3ccc(C#N)nc23)[C@@H](C)CN1Cc1c(F)cc(C#N)cc1F [Example 267] and reply at your convenience. b1

Please classify: C[C@@H]1CN(c2cc(=O)n(C)c3ccc(C#N)nc23)[C@@H](C)CN1C(c1ccc(Cl)cc1)c1ccc(Cl)cc1 [Example 25] b0

Hi, small favor: classify C[C@@H]1CN(c2cc(=O)n(C)c3ccc(C#N)nc23)[C@@H](C)CN1C(c1ccccc1)c1cccc(F)c1F (stereo partly shown) [Example 276] by its IC50 when you get a moment. b1

====

# Subject of test: human DGKζ (Homo sapiens)
# Construct: TVMV protease cleavage site (C); Hexa-His (C); made in house; host or cells: Sf9 insect cells (baculovirus, Bac-to-Bac)
# Protocol summary: DGKζ LIPGLO assay (extruded liposome substrate), in vitro DGK inhibition
# Format: biochemical
# Condition: liposome (LIPGLO) assay; read-out: DGKz LIPGLO IC50
Consider the following molecules; for each one, report its pIC50.
Keep it numeric: pIC50 is minus log10 of the concentration in mol/L.

Look at this molecule and give its reported pIC50. C[C@@H]1CN(c2cc(=O)n(C)c3ccc(C#N)nc23)[C@@H](C)CN1C(c1ccc(F)cc1)c1ccncn1 (single isomer, unassigned) [Example 392] 5.68

Which pIC50 value belongs to C[C@@H]1CN(c2cc(=O)n(C)c3ccc(C#N)nc23)[C@@H](C)CN1C(c1ccc(F)cc1)c1ccc(C#N)cc1 (single isomer, unassigned) [Example 306] ? 5.89

Please give the measured pIC50 for this molecule: Cn1c(=O)cc(N2CCN(C(c3ccc(F)cc3)c3ccc(F)cc3)CC2CF)c2nc(C#N)ccc21 (single isomer, unassigned) [Example 151] 5.06

I am curious: what pIC50 value has been reported for CC(C)Oc1cccc(CN2C[C@H](C)N(c3cc(=O)n(C)c4ccc(C#N)nc34)C[C@H]2C)c1 [Example 594] ? 5.85

I am curious: what pIC50 value has been reported for C[C@@H]1CN(c2cc(=O)n(C)c3ccc(C#N)nc23)[C@@H](C)CN1C(c1ccccc1)c1cc(F)cc(F)c1 (stereo partly drawn) [Example 288] ? 5.66

Need pIC50 of Cc1nccc(C(c2ccc(F)cc2)N2C[C@H](C)N(c3cc(=O)n(C)c4ccc(C#N)nc34)C[C@H]2C)n1 (single isomer, unassigned) [Example 401] , thanks. 5.35

Suppose we examine the molecule C[C@@H]1CN(C(c2ccc(F)cc2)c2ccc(C#N)cc2)[C@@H](CO)CN1c1cc(=O)n(C)c2ccc(C#N)nc12 (single isomer, unassigned) [Example 1177] ; what pIC50 value has been reported? 6.21

Entry Cc1ccc(C(c2ccc(C)c(Cl)c2)N2C[C@H](C)N(c3cc(=O)n(C)c4ccc(C#N)nc34)C[C@H]2C)nc1 (stereo partly drawn) [Example 399] : reported pIC50 = ? 6.16

Item Cc1cccc(F)c1CN1C[C@H](C)N(c2cc(=O)n(C)c3ccc(C#N)nc23)C[C@H]1C [Example 255] has what recorded pIC50? 5.77

# get_value(readout='pIC50', item= C[C@@H]1CN(c2cc(=O)n(C)c3ccc(C#N)nc23)[C@@H](C)CN1C(Cc1nc(C2CC2)no1)c1ccc(F)cc1 (single isomer, unassigned) [Example 1326] ) 6.33

If you can, please state the reported pIC50 value of C[C@@H]1CN(c2cc(=O)n(C)c3ccc(C#N)nc23)[C@@H](C)CN1C(c1ccc(F)cc1)c1c(F)cc(F)cc1F (single isomer, unassigned) [Example 693] . 6.24

Requested field: pIC50. Item: C[C@@H]1CN(c2cc(=O)n(C)c3ccc(C#N)nc23)[C@@H](C)CN1Cc1ccc(F)c(F)c1 [Example 291] 5.82

====

# Test system: Human venous whole blood
# Protocol summary: Human whole blood IFN-γ assay;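 note: blood from healthy donors exposed to compound for 1 h before stimulation with anti-CD3 and anti-CD28 at 1 µg/mL each, IFN-γ quantified in supernatant by AlphaLISA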
# Type: cell-based
# Condition: Homo sapiens, 24 h, human whole blood, anti-CD3 plus anti-CD28, 24 hours; 3 μM reference compound = 100% activation; read-out: INFg Whole Blood Normalized Agonist EC50
pEC50: −log10 of the molar value.
Label Met when pEC50 is at or above 6; otherwise label Not met.

Could you tell me if the measured pEC50 of C[C@@H]1CN(c2cc(=O)n(C)c3ccc(C#N)nc23)[C@@H](C)CN1C(c1ccc(F)cc1)c1nc(C(F)F)no1 (stereo partly drawn) reaches 6 or more? Met

Is reported pEC50 greater than or equal to 6 here: C[C@@H]1CN(c2c(C#N)c(=O)n(C)c3ccc(C#N)nc23)CCN1C(c1ccc(F)cc1)c1ccc(Cl)cn1 (stereo partly drawn) Met

Is it the case that C[C@@H]1CN(c2cc(=O)n(C)c3ccc(C#N)nc23)[C@@H](C)CN1C(c1ccc(F)cc1)c1nnc(C2CC2)o1 (single isomer, unassigned) has pEC50 reaching or exceeding 6? Not met

Say whether CC(c1ccc(C#N)cc1)N1CCN(c2c(C#N)c(=O)n(C)c3ccc(C#N)nc23)C[C@H]1C (stereo partly drawn) shows pEC50 of 6 or more. Not met

I'd appreciate it if you could say whether C[C@@H]1CN(c2c(C#N)c(=O)n(C)c3ccc(C#N)nc23)[C@@H](C)CN1C(c1ccc(Cl)cc1)c1ncccc1F (single isomer, unassigned) has pEC50 at least equal to 6. Not met

====

# Subject of test: human DGKα (Homo sapiens)
# Construct: TVMV protease cleavage site (C); Hexa-His (C); made in house; host or cells: Sf9 insect cells (baculovirus, Bac-to-Bac)
# Sequence (P23743 with tags, fused parts or gaps): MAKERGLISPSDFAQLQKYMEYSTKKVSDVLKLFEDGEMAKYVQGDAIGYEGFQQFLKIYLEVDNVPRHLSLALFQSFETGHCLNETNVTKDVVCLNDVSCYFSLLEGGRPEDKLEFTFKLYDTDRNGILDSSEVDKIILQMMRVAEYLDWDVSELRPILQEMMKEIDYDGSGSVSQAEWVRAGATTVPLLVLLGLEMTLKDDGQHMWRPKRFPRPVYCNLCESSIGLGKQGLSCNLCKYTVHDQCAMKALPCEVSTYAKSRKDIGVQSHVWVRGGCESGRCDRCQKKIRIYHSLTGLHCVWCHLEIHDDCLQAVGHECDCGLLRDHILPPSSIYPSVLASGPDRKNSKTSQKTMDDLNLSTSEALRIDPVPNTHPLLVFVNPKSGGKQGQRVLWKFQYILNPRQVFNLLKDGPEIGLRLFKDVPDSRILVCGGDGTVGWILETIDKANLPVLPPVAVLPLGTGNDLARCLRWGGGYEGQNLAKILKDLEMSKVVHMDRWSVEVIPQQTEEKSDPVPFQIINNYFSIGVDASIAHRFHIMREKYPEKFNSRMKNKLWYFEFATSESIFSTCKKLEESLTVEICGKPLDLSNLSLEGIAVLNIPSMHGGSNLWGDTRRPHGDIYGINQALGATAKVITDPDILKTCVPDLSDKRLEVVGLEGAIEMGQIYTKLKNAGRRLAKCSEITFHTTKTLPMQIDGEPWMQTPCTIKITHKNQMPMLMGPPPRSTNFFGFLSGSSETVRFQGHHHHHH
# Protocol summary: DGKα LIPGLO assay (extruded liposome substrate), in vitro DGK inhibition
# Format: biochemical
# Condition: liposome (LIPGLO) assay; read-out: DGKa LIPGLO IC50
Measure name: pIC50
In plain terms, pIC50 is the concentration in mol/L turned into minus its base-10 logarithm.

pIC50 lookup needed for `C[C@@H]1CN(c2cc(=O)n(C)c3ccc(C#N)nc23)[C@@H](C)CN1Cc1ccc(P(C)(C)=O)cc1` , thanks. 4.29

So what does the record say about pIC50 for CC(c1cc(OC(F)(F)F)ccc1F)N1C[C@H](C)N(c2cc(=O)n(C)c3ccc(C#N)nc23)C[C@H]1C (stereo partly shown) [Example 1203] ? 5.52

So what does the record say about pIC50 for `CC[C@@H]1CN(c2cc(=O)n(C)c3ccc(C#N)nc23)[C@@H](C)CN1Cc1ccc(F)cc1F` ? 6.34

Endpoint output: pIC50 of CC[C@@H]1CN(c2cc(=O)n(C)c3ccc(C#N)nc23)[C@@H](C)CN1C(C)c1ccc(OC)cc1 (single isomer, unassigned) [Example 1350] . Value? 7.01

Which pIC50 reading was recorded for the molecule CC[C@H]1CN(C(c2ccc(F)cc2)c2ccc(Cl)cc2)[C@H](CC)CN1c1cc(=O)n(C)c2ccc(C#N)nc12 (stereo partly shown) ? 6.59

For the molecule shown here, CC(c1ccc(C(F)(F)F)cn1)N1C[C@H](C)N(c2cc(=O)n(C)c3ccc(C#N)nc23)C[C@H]1C (single isomer, unassigned) , give the reported pIC50. 6.51

Please give the measured pIC50 for this molecule: `C[C@@H]1CN(c2cc(=O)n(C)c3ccc(C#N)nc23)[C@@H](C)CN1Cc1c(F)ccc(F)c1Cl` 5.85

Data credit: patent US10669272B2
